Target: UniProt P51681
Sequence (P51681 whole entry): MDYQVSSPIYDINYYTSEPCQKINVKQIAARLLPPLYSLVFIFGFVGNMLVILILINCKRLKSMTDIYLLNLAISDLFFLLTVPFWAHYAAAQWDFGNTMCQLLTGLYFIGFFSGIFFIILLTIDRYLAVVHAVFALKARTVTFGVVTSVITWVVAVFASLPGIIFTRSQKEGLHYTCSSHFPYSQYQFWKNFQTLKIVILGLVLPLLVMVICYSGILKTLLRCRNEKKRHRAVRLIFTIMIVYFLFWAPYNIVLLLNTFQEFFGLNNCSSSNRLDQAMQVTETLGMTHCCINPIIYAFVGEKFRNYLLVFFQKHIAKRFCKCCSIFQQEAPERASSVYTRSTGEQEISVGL
Assay: Inhibition of MIP1alpha binding to human CCR5 receptor
pIC50: −log10 of the molar value.

{"compound": "CC1OC(=O)c2c3c(c(O)c(O)c21)OC(C)(C)CC3 (stereo unspecified)", "pIC50": 4.70}
